src = patent US20150005281A1

Target: JAK1 (Homo sapiens, UniProt P23458)
Construct: endogenous in cells; mixed lysate 1:2
Sequence (P23458 whole entry): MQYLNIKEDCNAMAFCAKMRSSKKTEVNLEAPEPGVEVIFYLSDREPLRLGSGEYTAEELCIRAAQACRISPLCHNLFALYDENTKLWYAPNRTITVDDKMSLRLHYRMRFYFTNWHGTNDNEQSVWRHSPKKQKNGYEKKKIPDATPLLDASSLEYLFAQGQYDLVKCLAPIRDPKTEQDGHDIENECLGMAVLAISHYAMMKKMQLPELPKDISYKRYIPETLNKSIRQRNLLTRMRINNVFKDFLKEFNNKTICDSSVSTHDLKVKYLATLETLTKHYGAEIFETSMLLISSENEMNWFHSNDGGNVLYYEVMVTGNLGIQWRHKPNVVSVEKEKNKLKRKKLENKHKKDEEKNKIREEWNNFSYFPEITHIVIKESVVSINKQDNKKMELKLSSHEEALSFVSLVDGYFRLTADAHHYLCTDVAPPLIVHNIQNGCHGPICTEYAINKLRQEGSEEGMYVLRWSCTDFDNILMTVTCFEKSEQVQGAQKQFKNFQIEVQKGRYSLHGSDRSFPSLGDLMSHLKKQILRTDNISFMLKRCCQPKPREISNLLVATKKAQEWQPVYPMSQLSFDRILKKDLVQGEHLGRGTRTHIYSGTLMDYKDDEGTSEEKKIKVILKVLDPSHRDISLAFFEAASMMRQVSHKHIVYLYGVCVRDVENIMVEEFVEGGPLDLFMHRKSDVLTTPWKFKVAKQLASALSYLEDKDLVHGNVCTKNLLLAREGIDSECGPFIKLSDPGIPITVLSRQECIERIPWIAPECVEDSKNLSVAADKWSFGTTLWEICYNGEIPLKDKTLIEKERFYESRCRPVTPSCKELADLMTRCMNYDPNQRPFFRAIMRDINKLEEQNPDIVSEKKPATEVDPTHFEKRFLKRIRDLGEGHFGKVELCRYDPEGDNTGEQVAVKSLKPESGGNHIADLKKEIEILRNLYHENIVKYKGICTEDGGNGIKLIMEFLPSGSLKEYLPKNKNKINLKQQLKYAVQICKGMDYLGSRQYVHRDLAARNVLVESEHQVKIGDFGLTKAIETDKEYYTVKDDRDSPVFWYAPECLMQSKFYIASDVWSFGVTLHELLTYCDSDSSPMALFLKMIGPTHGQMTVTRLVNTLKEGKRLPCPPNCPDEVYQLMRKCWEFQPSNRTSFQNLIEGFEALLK
Experiment: Kinobeads assay with immunodetection, JAK1
Conditions: Kinobeads assay, mixed Molt4/Ramos lysate; read-out: Inhibition values (IC50) JAK1
pIC50: −log10 of the molar value.
measure: pIC50

CN(C)CC(=O)N1CC[C@H](CNc2nc(Nc3cnn(C)c3)ncc2Cl)C1 [Example 59] : 6.00 to 7.00

Quick one: pIC50 of Cn1cc(Nc2ncc(Cl)c(NC[C@H]3CCN(CCO)C3)n2)cn1 [Example 56] ?
6.00 to 7.00

// next record CN(C)C(=O)Cn1cc(Nc2ncc(Cl)c(NC[C@H]3CCCN3S(C)(=O)=O)n2)cn1 [Example 68]
> 7.00

// next record C=CC(=O)N1CCCC[C@@H]1CNc1nc(Nc2cnn(C)c2)ncc1Cl [Example 41]
6.00 to 7.00

// next record Cc1cnc(Nc2cnn(C)c2)nc1NC[C@@H]1C[C@H](F)CN1CCC#N [Example 101]
> 7.00

// next record Cn1cc(Nc2ncc(Cl)c(NCC3CN(S(C)(=O)=O)C3)n2)cn1 [Example 18]
< 5.00

// next record CC(=O)N1CCC[C@@H]1CNc1nc(Nc2cnn(C)c2)ncc1Cl [Example 1]
6.00 to 7.00

// next record Cn1cc(Nc2ncc(Cl)c(NC[C@H]3CCCN(C(=O)CC#N)C3)n2)cn1 [Example 137]
> 7.00

// next record Cn1cc(Nc2ncc(Cl)c(NC[C@H]3CCN(S(C)(=O)=O)C3)n2)cn1 [Example 24]
> 7.00

// next record Cn1cc(Nc2ncc(Cl)c(NC[C@@H]3C[C@H](F)CN3CCC#N)n2)cn1 [Example 90]
> 7.00

// next record CC(=O)N1CC(CNc2nc(Nc3cnn(C)c3)ncc2Cl)C1 [Example 16]
< 5.00

// next record Cn1cc(Nc2ncc(Cl)c(NC[C@H]3CCCN3C(=O)NC3CC3)n2)cn1 [Example 89]
> 7.00

// next record C=CC(=O)N1CCC[C@@H]1CNc1nc(Nc2cnn(C)c2)ncc1Cl [Example 3]
6.00 to 7.00
